- measured_on: Polyunsaturated fatty acid 5-lipoxygenase (Homo sapiens)
- Sequence (P09917 whole entry): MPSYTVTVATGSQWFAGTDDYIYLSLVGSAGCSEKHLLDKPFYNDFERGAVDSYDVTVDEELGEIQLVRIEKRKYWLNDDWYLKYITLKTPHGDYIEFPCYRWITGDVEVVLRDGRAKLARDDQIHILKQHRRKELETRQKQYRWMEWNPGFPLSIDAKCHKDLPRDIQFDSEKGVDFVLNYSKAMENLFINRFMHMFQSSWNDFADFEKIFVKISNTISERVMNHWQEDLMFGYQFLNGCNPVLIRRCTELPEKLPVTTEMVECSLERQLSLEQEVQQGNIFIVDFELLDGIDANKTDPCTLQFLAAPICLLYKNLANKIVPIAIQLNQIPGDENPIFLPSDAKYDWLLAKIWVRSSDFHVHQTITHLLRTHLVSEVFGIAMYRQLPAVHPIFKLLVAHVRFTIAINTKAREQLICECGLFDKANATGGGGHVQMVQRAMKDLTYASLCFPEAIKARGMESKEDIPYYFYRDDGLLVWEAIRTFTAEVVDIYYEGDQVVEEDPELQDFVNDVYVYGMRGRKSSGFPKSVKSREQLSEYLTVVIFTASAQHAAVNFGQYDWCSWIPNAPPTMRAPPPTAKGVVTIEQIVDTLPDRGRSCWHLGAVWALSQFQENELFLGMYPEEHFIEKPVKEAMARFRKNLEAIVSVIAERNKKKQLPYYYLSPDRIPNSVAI
- protocol_details: Inhibition of recombinant human 5-LOX using arachidonic acid as substrate measured after 5 mins by fluorescence assay
readout_name: IC50 (µM)
Give the quantity in µM, number only.

Enquiry: Return value of IC50 for input Cc1ccc(Cc2cc3c(=O)n([C@H]4CCCC[C@@H]4O)cnc3c3ccccc23)cn1 [MK-7622] , no commentary.
Return: 4.4

###

- measured_on: MDR1 (P-gp, ABCB1) (Homo sapiens, UniProt P08183)
- Sequence (P08183 whole entry): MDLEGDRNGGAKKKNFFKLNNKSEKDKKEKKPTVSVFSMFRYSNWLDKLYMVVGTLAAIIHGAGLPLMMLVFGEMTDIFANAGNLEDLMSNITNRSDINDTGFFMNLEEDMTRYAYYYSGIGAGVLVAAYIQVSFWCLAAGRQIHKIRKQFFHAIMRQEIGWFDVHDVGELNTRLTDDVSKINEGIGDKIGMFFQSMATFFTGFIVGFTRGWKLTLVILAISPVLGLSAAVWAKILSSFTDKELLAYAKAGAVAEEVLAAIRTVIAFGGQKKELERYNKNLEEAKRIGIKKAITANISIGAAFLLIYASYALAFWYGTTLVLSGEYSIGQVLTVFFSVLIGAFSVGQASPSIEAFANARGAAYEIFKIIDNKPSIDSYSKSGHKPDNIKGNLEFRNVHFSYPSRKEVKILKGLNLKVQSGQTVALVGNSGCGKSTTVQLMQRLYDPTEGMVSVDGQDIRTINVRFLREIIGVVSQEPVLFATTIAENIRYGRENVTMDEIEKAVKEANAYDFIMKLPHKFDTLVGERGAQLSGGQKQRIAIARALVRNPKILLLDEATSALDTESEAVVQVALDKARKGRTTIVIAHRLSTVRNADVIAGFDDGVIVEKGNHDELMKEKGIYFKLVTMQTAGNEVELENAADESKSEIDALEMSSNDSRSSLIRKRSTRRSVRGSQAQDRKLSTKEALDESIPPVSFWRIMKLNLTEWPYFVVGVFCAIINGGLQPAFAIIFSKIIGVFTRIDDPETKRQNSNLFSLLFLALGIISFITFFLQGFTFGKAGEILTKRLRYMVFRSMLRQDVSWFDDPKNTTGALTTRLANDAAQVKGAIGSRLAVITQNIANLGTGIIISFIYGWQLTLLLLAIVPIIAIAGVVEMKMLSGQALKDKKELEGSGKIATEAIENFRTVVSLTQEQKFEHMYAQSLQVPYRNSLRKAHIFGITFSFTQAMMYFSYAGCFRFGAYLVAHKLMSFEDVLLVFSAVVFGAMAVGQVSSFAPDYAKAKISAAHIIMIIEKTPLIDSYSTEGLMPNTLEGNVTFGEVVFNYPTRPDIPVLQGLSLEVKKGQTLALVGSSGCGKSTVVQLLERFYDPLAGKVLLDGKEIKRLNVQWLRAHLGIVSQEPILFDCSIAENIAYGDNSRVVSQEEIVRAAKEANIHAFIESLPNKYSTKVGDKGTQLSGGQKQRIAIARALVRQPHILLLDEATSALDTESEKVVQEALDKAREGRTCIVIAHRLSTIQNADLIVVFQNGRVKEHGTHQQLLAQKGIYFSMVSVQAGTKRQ
- protocol_details: Substrate activity at MDR1 (unknown origin) assessed as efflux ratio of permeability from basolateral to apical side over apical to basolateral side
- Type: ADME
- condition_details: not told
readout_name: efflux ratio
# answer = number (no unit)

Enquiry: Return value of efflux ratio for input O=c1c2cc(Cc3ccc(Cl)nc3)c3ccccc3c2ncn1[C@H]1CCCC[C@@H]1O , no commentary.
Return: 1.1

###

- protocol_details: Lipophilicity, log D of the compound by HPLC method
- Format: physicochemical
Assign class by logD: not lower than 3 means 1.0; lower than 3 means 0.0.

Reference set, count: 3
Cc1ccc(Cc2cc3c(=O)n([C@H]4CCCC[C@@H]4O)cnc3c3ccccc23)cn1; 0.0
O=c1c2cc(Cc3ccc(Cl)nc3)c3ccccc3c2ncn1[C@H]1CCCC[C@@H]1O; 1.0
O=c1c2cc(Cc3cccnc3)c3ccccc3c2ncn1[C@H]1CCCC[C@@H]1O (relative stereo); 0.0

Enquiry: Tell me whether logD is at least 3 here: CSc1ccc(Cc2cc3c(=O)n([C@H]4CCCC[C@@H]4O)cnc3c3ccccc23)cn1
Return: 1.0

###

- protocol_details: Oral bioavailability in Sprague-Dawley rat at 10 mg/kg
- Type: ADME, organism-based
- condition_details: in vivo
readout_name: bioavailability (%)
Give the quantity in %, number only.

Enquiry: Return value of bioavailability for input Cc1ccc(Cc2cc3c(=O)n([C@H]4CCCC[C@@H]4O)cnc3c3ccccc23)cn1 , no commentary.
Return: 56

###

- protocol_details: Equilibrium solubility of the compound in fasted state simulated intestinal fluid using crystalline compound
- Type: physicochemical
readout_name: solubility thermodynamic (µg/mL)
Give the quantity in µg/mL, number only.

Enquiry: Return value of solubility thermodynamic for input Cc1ccc(Cc2cc3c(=O)n([C@H]4CCCC[C@@H]4O)cnc3c3ccccc23)cn1.O=C(O)/C=C/C(=O)O , no commentary.
Return: 40

###

- protocol_details: Clearance in rhesus monkey at 1 mg/kg, po or 0.5 mg/kg, iv
- Assay type: ADME, organism-based, Macaca mulatta
- condition_details: in vivo
readout_name: clearance (mL/min/kg)
Give the quantity in mL/min/kg, number only.

Enquiry: Return value of clearance for input Cc1ccc(Cc2cc3c(=O)n([C@H]4CCCC[C@@H]4O)cnc3c3ccccc23)cn1 , no commentary.
Return: 7.6

###

In this section, each of the molecules is paired with its reported solubility kinetic.
- protocol_details: Kinetic solubility of the compound at pH 2
- Format: physicochemical
- condition_details: buffer, read-out: Kinetic_solubility
Give the quantity in µM, number only.

Would you please look over these solved cases?
O=c1c2cc(Cc3cccnc3)c3ccccc3c2ncn1[C@H]1CCCC[C@@H]1O (relative stereo); 181
CSc1ccc(Cc2cc3c(=O)n([C@H]4CCCC[C@@H]4O)cnc3c3ccccc23)cn1; 102

Enquiry: Return value of solubility kinetic for input COc1ccc(Cc2cc3c(=O)n([C@H]4CCCC[C@@H]4O)cnc3c3ccccc23)cn1 , no commentary.
Return: 71

Enquiry: Return value of solubility kinetic for input Cc1ccc(Cc2cc3c(=O)n([C@H]4CCCC[C@@H]4O)cnc3c3ccccc23)cn1 [MK-7622] , no commentary.
Return: 191

###

- measured_on: MDR1 (P-gp, ABCB1) (Homo sapiens)
- protocol_details: Substrate activity at MDR1 (unknown origin) assessed as apparent permeability
- Assay type: ADME
- condition_details: not told
readout_name: Papp

Enquiry: Return value of Papp for input Cc1ccc(Cc2cc3c(=O)n([C@H]4CCCC[C@@H]4O)cnc3c3ccccc23)cn1 [MK-7622] , no commentary.
Return: 33 ×10⁻⁶ cm/s

###

- protocol_details: Oral bioavailability in Mongrel dog at 3 mg/kg
- Format: ADME, organism-based, Canis lupus familiaris
- condition_details: in vivo
readout_name: bioavailability (%)
Give the quantity in %, number only.

Enquiry: Return value of bioavailability for input Cc1ccc(Cc2cc3c(=O)n([C@H]4CCCC[C@@H]4O)cnc3c3ccccc23)cn1 , no commentary.
Return: 76

###

- protocol_details: Clearance in Sprague-Dawley rat at 10 mg/kg, po or 2 mg/kg, iv
- Type: ADME, organism-based
- condition_details: in vivo
readout_name: clearance (mL/min/kg)
Give the quantity in mL/min/kg, number only.

Enquiry: Return value of clearance for input Cc1ccc(Cc2cc3c(=O)n([C@H]4CCCC[C@@H]4O)cnc3c3ccccc23)cn1 , no commentary.
Return: 18.9

###

- protocol_details: Equilibrium solubility of the compound at pH <4
- Type: physicochemical
readout_name: solubility thermodynamic

Enquiry: Return value of solubility thermodynamic for input Cc1ccc(Cc2cc3c(=O)n([C@H]4CCCC[C@@H]4O)cnc3c3ccccc23)cn1 [MK-7622] , no commentary.
Return: 6000 to 9000 µg/mL

###

- protocol_details: Volume of distribution at steady state in Sprague-Dawley rat at 10 mg/kg, po or 2 mg/kg, iv
- Type: ADME, organism-based
- condition_details: in vivo, read-out: Vdss
readout_name: Vd (L/kg)
Give the quantity in L/kg, number only.

Enquiry: Return value of Vd for input Cc1ccc(Cc2cc3c(=O)n([C@H]4CCCC[C@@H]4O)cnc3c3ccccc23)cn1 , no commentary.
Return: 0.94

###

- protocol_details: Terminal half life in rhesus monkey at 1 mg/kg, po or 0.5 mg/kg, iv
- Type: ADME, organism-based, Macaca mulatta
- condition_details: in vivo, read-out: beta t1/2 (converted)
readout_name: half-life (h)
Give the quantity in h, number only.

Enquiry: Return value of half-life for input Cc1ccc(Cc2cc3c(=O)n([C@H]4CCCC[C@@H]4O)cnc3c3ccccc23)cn1 , no commentary.
Return: 1.8

###

- protocol_details: Kinetic solubility of the compound at pH 7
- Type: physicochemical
- condition_details: buffer, read-out: Kinetic_solubility
readout_name: solubility kinetic

Would you please look over these solved cases?
O=c1c2cc(Cc3ccc(Cl)nc3)c3ccccc3c2ncn1[C@H]1CCCC[C@@H]1O; < 2 µM
CSc1ccc(Cc2cc3c(=O)n([C@H]4CCCC[C@@H]4O)cnc3c3ccccc23)cn1; < 2 µM

Enquiry: Return value of solubility kinetic for input COc1ccc(Cc2cc3c(=O)n([C@H]4CCCC[C@@H]4O)cnc3c3ccccc23)cn1 , no commentary.
Return: < 3 µM

###

In this section, each of the molecules is paired with its reported IP.
- measured_on: Muscarinic acetylcholine receptor M1 (Homo sapiens)
- protocol_details: Positive allosteric modulation of human muscarinic acetylcholine receptor M1 expressed in CHO cells assessed as increase in acetylcholine-induced calcium mobilization pretreated for 4 mins followed by acetylcholine addition and measured after 4 mins by Fluo-4-AM dye based FLIPR assay
- Assay type: functional, cell-based
Give the quantity in µM, number only.

Would you please look over these solved cases?
COc1ccc(Cn2cc(C(=O)O)c(=O)c3ccccc32)cc1; 0.66
COc1ccc(Cc2cc3c(=O)n(-c4ccccc4F)ccc3c3ccccc23)cc1; 3.3
COc1ccc(Cn2cc3c(=O)n(-c4ccccc4F)nc-3c3ccccc32)cc1; 0.41

Let's switch to this molecule now.
Enquiry: Return value of IP for input COc1ccc(Cn2cc3c(=O)n(-c4ccccc4)nc-3c3ccccc32)cc1 , no commentary.
Return: 8.9
